Test: Human HepG2 cell viability assay in 384 well format
Assay type: toxicity, cell-based
Parameters: dose 125 nL, time 70.5 hour; concentration not given beside the values
Study conditions: HepG2 cells, read-out: Inhibition
Listed compounds paired with reported cytotoxicity at 70.5 h
Field: numeric (%). Do not append units.

Query :: // lookup cytotoxicity at 70.5 h for Cc1cccnc1C(=O)N1CCCCC1c1[nH]ncc1S(C)(=O)=O (configuration not stated)
Result :: 1.39

Attention now turns to another entry.
Query :: # query: cytotoxicity at 70.5 h of entry Cc1cccc(CN2Cc3ncn(C)c3C(COCC(=O)N(C)C)C2)n1 (configuration not stated)
Result :: -3.93

* * *

Test: Human HepG2 cell viability assay in 384 well format
Type: toxicity, cell-based
Parameters: dose 125 nL, time 70.5 hour; concentration not given beside the values
Study conditions: HepG2 cells, read-out: Inhibition
Each entry below carries its recorded cytotoxicity at 70.5 h.
Return type: number; implicit unit %.

Worked examples follow.
Query :: Give the measured cytotoxicity at 70.5 h of COc1cccc2ccc(N3CCC(O)(c4ccc(C)cn4)CC3)nc12 .
Result :: -21.5

Query :: # get_value(readout='cytotoxicity at 70.5 h', item= O=C1CCC2(CCN(Cc3cscn3)CC2)CN1[C@H]1CC[C@H](O)CC1 )
Result :: -13.1

Query :: Looking for the measured cytotoxicity at 70.5 h of O=c1c2cc3c(cc2nnn1Cc1cccc(F)c1)OCCO3 , can you help?
Result :: -9.5

Query :: Name the reported cytotoxicity at 70.5 h value associated with the compound CN1CCCC(CCC(=O)NCCCn2ncc3ccccc32)C1 (configuration not stated)
Result :: 25.3

Query :: Which value of cytotoxicity at 70.5 h has been reported for CCOc1cc(C)nc(N2CCN(C(=O)c3ccnn3C)CC2)n1 in the records?
Result :: -3.99

New cases:
Query :: What value of measured cytotoxicity at 70.5 h is listed for Cn1ccnc1CN1CCN(Cc2cc(C#N)ccc2F)CC1 ?
Result :: -11.4

Query :: Which measured cytotoxicity at 70.5 h value corresponds to CCOC(=O)N(C)C1CCN(Cc2ccsc2)CC1 ?
Result :: 19.3

Query :: # cytotoxicity at 70.5 h lookup, item CC(C)CCc1nc(CNCC2CN(C)CCO2)cs1 (configuration not stated)
Result :: -1.37

Query :: Name the recorded cytotoxicity at 70.5 h for CC(C)NC(=O)Nc1ncc(-c2cccnc2)s1 .
Result :: -4.04

Query :: Name the reported cytotoxicity at 70.5 h value associated with the compound COc1cccc([C@@H]2CN(C(=O)c3ccc(C)cc3O)C[C@H]2C(=O)O)c1
Result :: -5.65

Query :: What does the data say about its cytotoxicity at 70.5 h? Entry: CC(C)n1cnc2c(-c3cccnc3)nc(C3CCNCC3)cc21
Result :: 12

Query :: For the compound CSc1nc2ncc3c(=O)n(CCN4CCCCC4)ccc3n2n1 , what cytotoxicity at 70.5 h is on record?
Result :: -4.31
